Item-by-item account of k r (transport rate constant between receptor compartment and aqueous medium)
System: OXT-receptor compartment of the potassium depolarized rat myometrium
Test: Oil-immersion (stopped-transport) and washout time–response experiments on myometrium strips
Settings: K+-depolarized rat myometrium strip ex vivo, 30°C; from combined oil-immersion and washout data; arithmetic mean ± SD of computation runs
Numbered stars: 1 amine (or outer) side, 2 acyl side, 3 side chain; on linkers, the order of the positions; unused ones are H or OH. Bridge positions count the residues as written; N and C are the ends. Square brackets hold non-standard residues; d marks the D form. Peptide text beside a SMILES is read from it. Abu(4-yl) = O=C([C@H](CC[*:3])N[*:1])[*:2]
Supply the numeric figure in min⁻¹, leaving out any unit text.

| compound | measurementTarget | numericValue |
| --- | --- | --- |
| CC[C@H](C)[C@@H]1NC(=O)[C@H](Cc2ccc(O)cc2)NC(=O)[C@@H](N)CCSC[C@@H](C(=O)N2CCC[C@H]2C(=O)N[C@@H](CC(C)C)C(=O)NCC(N)=O)NC(=O)[C@H](CC(N)=O)NC(=O)[C@H](CCC(N)=O)NC1=O [Peptide C1OT, [6,1‐Cystathionine]‐OXT] (H-[Abu(4-yl)]YIQNCPLG-NH2; thioether 1-6) | OXT-receptor compartment of the potassium depolarized rat myometrium | 0.116 |
| CC[C@H](C)[C@@H]1NC(=O)[C@H](Cc2ccc(O)cc2)NC(=O)[C@@H](N)CSSC[C@@H](C(=O)N2CCC[C@H]2C(=O)N[C@@H](CC(C)C)C(=O)NCC(N)=O)NC(=O)[C@H](CC(N)=O)NC(=O)[C@H](CCC(N)=O)NC1=O [OXT, Oxytocin, reference compound] | OXT-receptor compartment of the potassium depolarized rat myometrium | 0.137 |

Value sought: k r (transport rate constant between receptor compartment and aqueous medium), system OXT-receptor compartment of the potassium depolarized rat myometrium, item CC[C@H](C)[C@@H]1NC(=O)[C@H](Cc2ccc(O)cc2)NC(=O)[C@@H](N)CCCC[C@@H](C(=O)N2CCC[C@H]2C(=O)N[C@@H](CC(C)C)C(=O)NCC(N)=O)NC(=O)[C@H](CC(N)=O)NC(=O)[C@H](CCC(N)=O)NC1=O [C1,6OT, [1,6‐α′,α‐diaminosuberic acid]‐OXT] . Result: 0.194

====

Reported Cumulative clearance k r + κ is given for each of the following molecules.
System: OXT-receptor compartment of the potassium depolarized rat myometrium
Assay: Oil-immersion (stopped-transport) and washout time–response experiments on myometrium strips
Conditions: K+-depolarized rat myometrium strip ex vivo, 30°C, washout decay phase; arithmetic mean ± SD of computation runs
Numbered stars: 1 amine (or outer) side, 2 acyl side, 3 side chain; on linkers, the order of the positions; unused ones are H or OH. Bridge positions count the residues as written; N and C are the ends. Square brackets hold non-standard residues; d marks the D form. Peptide text beside a SMILES is read from it. Abu(4-yl) = O=C([C@H](CC[*:3])N[*:1])[*:2]
Supply the numeric figure in min⁻¹, leaving out any unit text.

Consider the worked cases shown below.
| molecule | measurementTarget | measurementName | numericValue |
| --- | --- | --- | --- |
| CC[C@H](C)[C@@H]1NC(=O)[C@H](Cc2ccc(O)cc2)NC(=O)[C@@H](N)CCSC[C@@H](C(=O)N2CCC[C@H]2C(=O)N[C@@H](CC(C)C)C(=O)NCC(N)=O)NC(=O)[C@H](CC(N)=O)NC(=O)[C@H](CCC(N)=O)NC1=O [Peptide C1OT, [6,1‐Cystathionine]‐OXT] (H-[Abu(4-yl)]YIQNCPLG-NH2; thioether 1-6) | OXT-receptor compartment of the potassium depolarized rat myometrium | Cumulative clearance k r + κ | 0.272 |
| CC[C@H](C)[C@@H]1NC(=O)[C@H](Cc2ccc(O)cc2)NC(=O)CCSSC[C@@H](C(=O)N2CCC[C@H]2C(=O)N[C@@H](CC(C)C)C(=O)NCC(N)=O)NC(=O)[C@H](CC(N)=O)NC(=O)[C@H](CCC(=O)OC)NC1=O [DGOT] | OXT-receptor compartment of the potassium depolarized rat myometrium | Cumulative clearance k r + κ | 0.211 |
| CC[C@H](C)[C@@H]1NC(=O)[C@H](Cc2ccc(O)cc2)NC(=O)[C@@H](N)CSSC[C@@H](C(=O)N2CCC[C@H]2C(=O)N[C@@H](CC(C)C)C(=O)NCC(N)=O)NC(=O)[C@H](CC(N)=O)NC(=O)[C@H](CCC(N)=O)NC1=O [OXT, Oxytocin, reference compound] | OXT-receptor compartment of the potassium depolarized rat myometrium | Cumulative clearance k r + κ | 0.254 |

# ---- query molecule ----
// field: Cumulative clearance k r + κ; key: CC[C@H](C)[C@@H]1NC(=O)[C@H](Cc2ccc(O)cc2)NC(=O)[C@@H](N)CSSC[C@@H](C(=O)N2CCC[C@H]2C(=O)N[C@@H](CC(C)C)C(=O)NCC(N)=O)NC(=O)[C@H](CC(N)=O)NC(=O)[C@H](CCC(=O)OC)NC1=O [GOT, [4‐Glutamic acid‐δ‐methylester]‐OXT] ; value = 0.267

====

Measured κ Observed (irreversible clearance rate constant in the receptor compartment) by item
Tested on: OXT-receptor compartment of the potassium depolarized rat myometrium
Test: Oil-immersion (stopped-transport) and washout time–response experiments on myometrium strips
Conditions: K+-depolarized rat myometrium strip ex vivo, high potassium Ringer medium (Ca2+, Mg2+ 0.5 mM), 30°C, oil-immersion decay phase, isometric tension, nonlinear regression; arithmetic mean ± SD of computation runs
Numbered stars: 1 amine (or outer) side, 2 acyl side, 3 side chain; on linkers, the order of the positions; unused ones are H or OH. Bridge positions count the residues as written; N and C are the ends. Square brackets hold non-standard residues; d marks the D form. Peptide text beside a SMILES is read from it. Abu(4-yl) = O=C([C@H](CC[*:3])N[*:1])[*:2]; X2 = O=C(CCC[*:2])[*:1]
Answer with a number only, understood to be in min⁻¹.

| compound | numericValue |
| --- | --- |
| CC[C@H](C)[C@@H]1NC(=O)[C@H](Cc2ccc(O)cc2)NC(=O)[C@@H](N)CCSC[C@@H](C(=O)N2CCC[C@H]2C(=O)N[C@@H](CC(C)C)C(=O)NCC(N)=O)NC(=O)[C@H](CC(N)=O)NC(=O)[C@H](CCC(N)=O)NC1=O [Peptide C1OT, [6,1‐Cystathionine]‐OXT] (H-[Abu(4-yl)]YIQNCPLG-NH2; thioether 1-6) | 0.162 |
| CC[C@H](C)[C@@H]1NC(=O)[C@H](Cc2ccc(O)cc2)NC(=O)CCCSC[C@@H](C(=O)N2CCC[C@H]2C(=O)N[C@@H](CC(C)C)C(=O)NCC(N)=O)NC(=O)[C@H](CC(N)=O)NC(=O)[C@H](CCC(N)=O)NC1=O [DC1OT, [1,6‐(2‐Amino‐4‐thiasuberic acid)]‐OXT] (YIQNCPLG-NH2; linker N-5 via X2) | 0.102 |

Turning to the following compound.
GET /value?item= CC[C@H](C)[C@@H]1NC(=O)[C@H](Cc2ccc(O)cc2)NC(=O)[C@@H](N)CCCC[C@@H](C(=O)N2CCC[C@H]2C(=O)N[C@@H](CC(C)C)C(=O)NCC(N)=O)NC(=O)[C@H](CC(N)=O)NC(=O)[C@H](CCC(N)=O)NC1=O [C1,6OT, [1,6‐α′,α‐diaminosuberic acid]‐OXT] &field=κ Observed (irreversible clearance rate constant in the receptor compartment) returns 0.076
